I'd appreciate it if you could supply mortality at 100 ppm values for the items below.
- Tested on: Ixodes ricinus
- method_description: Oral acaricidal test on ticks in membrane feeding wells with treated blood
- Assay type: in vivo
- assay_conditions: Ixodes ricinus, po; adult ticks, 100 ppm, 3 h; read-out: average percentage of adult tick mortality (moribund or dead adult ticks)
- Procedure: A laboratory study was conducted to determine the oral acaricidal properties of three compounds according to the invention (SN0305, SN0306 and SN0307) against Ixodes ricinus. Each compound was tested at 1, 10 and 100 ppm, and compared to a negative control corresponding to solvent alone (0.1% DMSO). Amitraz at 100 ppm was used as a positive control. The Ixodes ricinus ticks (nymphs and adults) were placed for 24 hours on a membrane in feeding wells containing blood mixed with the tested compounds. […]
Counter-ions that a name gives are not always drawn.
Numbers only, in %.

Parameters: items (list). Returns: mortality at 100 ppm for each item.
1. Cc1cccc([C@H](C)c2c[nH]cn2)c1C [Dexmedetomidine hydrochloride]
2. Cc1ccc(/N=C/N(C)/C=N/c2ccc(C)cc2C)c(C)c1
3. Cc1cccc(Cc2cnc[nH]2)c1C [Detomidine hydrochloride]
4. Cc1cccc(C(C)c2cnc[nH]2)c1C (racemic) [Medetomidine hydrochloride]

Outgoing:
1. 0
2. 2.8
3. 0
4. 0

The reported measurements were obtained from patent US12501899B2.
